# Tested on: M14 melanoma
# assay_text: NCI tumour cell line growth inhibition, 48 h

>  <compound>
O=c1/c(=C/c2ccccc2[N+](=O)[O-])sc2nnc(-c3cccnc3)n12

>  <tested_target>
M14 melanoma

>  <TGI>
> 100 µM

$$$$
>  <compound>
COc1cc2c(N3CCN(C(=O)Nc4ccc(OC(C)C)cc4)CC3)ncnc2cc1OCCCN1CCCCC1

>  <tested_target>
M14 melanoma

>  <TGI>
32.6 µM

$$$$
>  <compound>
N#CC1(c2ccc(NC(=O)c3cccnc3NCc3ccncc3)cc2)CCCC1

>  <tested_target>
M14 melanoma

>  <TGI>
> 67.1 µM

$$$$
>  <compound>
c1ccc2c(c1)SCCCS2

>  <tested_target>
M14 melanoma

>  <TGI>
> 100 µM

$$$$
>  <compound>
COC(=O)/C=C(/C(=O)OC)C1(C)c2cc(C(=O)OC)c(C(=O)OC)c(N)c2C(=N)N1c1ccccc1 (stereo not given)

>  <tested_target>
M14 melanoma

>  <TGI>
33.6 µM

$$$$
>  <compound>
O=C1c2cccc(Oc3ccccc3)c2C(=O)c2cccc(Oc3ccccc3)c21

>  <tested_target>
M14 melanoma

>  <TGI>
> 100 µM

$$$$
>  <compound>
COc1cc2nc(-c3ccc(Cl)cc3)cc(OCCCN3CCOCC3)c2cc1OC

>  <tested_target>
M14 melanoma

>  <TGI>
2.7 µM

$$$$
>  <compound>
O=C(COc1ccc(OCC(=O)N/N=C/c2ccc(-c3ccc(Cl)cc3Cl)o2)c(Cl)c1)N/N=C/c1ccc(-c2ccc(Cl)cc2Cl)o1

>  <tested_target>
M14 melanoma

>  <TGI>
> 100 µM

$$$$
>  <compound>
Cc1ccccc1-c1nc2c(N)nc(N)nc2nc1N

>  <tested_target>
M14 melanoma

>  <TGI>
> 100 µM

$$$$
>  <compound>
O=c1cc(O)cc2n1CCC2

>  <tested_target>
M14 melanoma

>  <TGI>
> 100 µM

$$$$

* * *

Listed here are compounds together with their documented TGI.
# System: UACC-257 melanoma
# assay_text: NCI tumour cell line growth inhibition, 48 h

>  <compound>
[N-]=[N+]=CC(=O)C1CCCN1C(=O)c1ccccc1 (stereo not drawn)

>  <tested_target>
UACC-257 melanoma

>  <TGI>
> 10 µM

$$$$
>  <compound>
Nc1ncnc2c1nnn2C1C=CC(CP(=O)(O)O)C1 (stereo not drawn)

>  <tested_target>
UACC-257 melanoma

>  <TGI>
> 100 µM

$$$$
>  <compound>
CC1=NN(C(=O)Cc2ccccc2)C(=O)/C1=C\c1ccc(O)cc1

>  <tested_target>
UACC-257 melanoma

>  <TGI>
> 100 µM

$$$$
>  <compound>
Nc1ncnc2c1N=C(c1ccc3c(c1)OCO3)CC(c1ccc(Cl)cc1)N2 (stereo not drawn)

>  <tested_target>
UACC-257 melanoma

>  <TGI>
> 100 µM

$$$$
>  <compound>
CCOC(=O)C1C(c2ccc(Cl)cc2Cl)NC(c2ccc(C)cc2)C(C(=O)OC)S1(=O)=O (stereo not drawn)

>  <tested_target>
UACC-257 melanoma

>  <TGI>
> 100 µM

$$$$
>  <compound>
CC(=O)O[C@@H](c1nccn1Cc1ccccc1)[C@H]1OC(C)(C)O[C@@H]1[C@H]1COC(C)(C)O1

>  <tested_target>
UACC-257 melanoma

>  <TGI>
> 100 µM

$$$$
>  <compound>
CCCCCCCCCCCCCCCCCCOc1ccccc1CC(=O)NCC[N+]1(C)CCOCC1

>  <tested_target>
UACC-257 melanoma

>  <TGI>
35.3 µM

$$$$
>  <compound>
NNC(=O)C(=O)N/N=C1/CCCC1C(=O)CCC(=O)Nc1ccc(Cl)cc1 (stereo not drawn)

>  <tested_target>
UACC-257 melanoma

>  <TGI>
> 100 µM

$$$$
>  <compound>
COC(=O)OC1C(O[C@H]2C[C@H]3[C@@H]4CC=C5C[C@@H](O)CC[C@]5(C)[C@H]4CC[C@]3(C)[C@H]2[C@H](C)C(=O)CCC(C)C)OCC(O)C1OC1OCC(O)C(O)C1OC(=O)c1ccc(OC)cc1 (stereo partly drawn)

>  <tested_target>
UACC-257 melanoma

>  <TGI>
0.0562 µM

$$$$
>  <compound>
Cc1nc2ccc(Cl)cc2c(-n2ccnc2)c1CCn1ccnc1

>  <tested_target>
UACC-257 melanoma

>  <TGI>
61 µM

$$$$
>  <compound>
COc1ccc2c(c1)c(-c1nc(-c3c[nH]c4ncccc34)cs1)cn2CCCN1CCOCC1

>  <tested_target>
UACC-257 melanoma

>  <TGI>
3.81 µM

$$$$
>  <compound>
CN(CCN1CCCC1)C1CCc2cc(Cl)c(Cl)cc2C1 (stereo not drawn)

>  <tested_target>
UACC-257 melanoma

>  <TGI>
32.4 µM

$$$$
>  <compound>
COc1ccc(C)cc1N1C(=O)C2ON(Cc3ccc(CC(N)=O)cc3)C(c3c4ccccc4c(Cl)c4ccccc34)C2C1=O (stereo not drawn)

>  <tested_target>
UACC-257 melanoma

>  <TGI>
33.2 µM

$$$$
>  <compound>
Cn1c2ccccc2c2ccc3c(c21)C(=O)c1ccc2c4ccccc4n(C)c2c1C3=O

>  <tested_target>
UACC-257 melanoma

>  <TGI>
> 100 µM

$$$$
>  <compound>
CN(C)C(=O)C(F)(F)C(c1ccc(F)cc1)C1C(=O)N(C)C(=O)N(C)C1=O (stereo not drawn)

>  <tested_target>
UACC-257 melanoma

>  <TGI>
> 100 µM

$$$$
>  <compound>
FC(F)(F)Oc1cccc(-c2cc(NCCCCCCNc3cc(-c4cccc(OC(F)(F)F)c4)nc4ccc(N5CCCC5)cc34)c3cc(N4CCCC4)ccc3n2)c1

>  <tested_target>
UACC-257 melanoma

>  <TGI>
3.88 µM

$$$$
>  <compound>
COC(=O)CNC(=O)C(CSC(=O)OCC1c2ccccc2-c2ccccc21)NC(=O)CCC(NC(=O)OCC1c2ccccc2-c2ccccc21)C(=O)OC (stereo not drawn)

>  <tested_target>
UACC-257 melanoma

>  <TGI>
> 100 µM

$$$$
>  <compound>
CC1=CC2C3(C)C(C)(C(C)=CP3(=O)c3c(C(C)C)cc(C(C)C)cc3C(C)C)C1P2(=O)c1c(C(C)C)cc(C(C)C)cc1C(C)C (stereo not drawn)

>  <tested_target>
UACC-257 melanoma

>  <TGI>
3.34 µM

$$$$
>  <compound>
COc1ccc(C(=O)c2cc(OC)c(OC)c(OC)c2OC)cc1O

>  <tested_target>
UACC-257 melanoma

>  <TGI>
> 100 µM

$$$$
>  <compound>
O=C1CC(c2ccccc2)Oc2ccccc21 (stereo not drawn)

>  <tested_target>
UACC-257 melanoma

>  <TGI>
> 100 µM

$$$$
>  <compound>
COc1ccc(C2Oc3ccc(Cl)cc3C=C2[N+](=O)[O-])cc1 (stereo not drawn)

>  <tested_target>
UACC-257 melanoma

>  <TGI>
> 100 µM

$$$$
>  <compound>
COc1ccc2c(c1)C(=O)c1c-2c(Nc2ccccc2OC)nc2ccccc12

>  <tested_target>
UACC-257 melanoma

>  <TGI>
> 100 µM

$$$$
>  <compound>
CN(/N=C1\C(=O)Nc2ccccc21)c1ccccc1

>  <tested_target>
UACC-257 melanoma

>  <TGI>
> 100 µM

$$$$
>  <compound>
Cc1cccc(NC(=O)c2sc3nc4c(cc3c2N)C(=O)CCC4)c1

>  <tested_target>
UACC-257 melanoma

>  <TGI>
> 100 µM

$$$$
>  <compound>
NCCN1CCCCCc2ccccc21

>  <tested_target>
UACC-257 melanoma

>  <TGI>
> 10 µM

$$$$
>  <compound>
COc1ccc2nc(NC(=O)/C(C#N)=C/c3ccccc3)sc2c1

>  <tested_target>
UACC-257 melanoma

>  <TGI>
> 100 µM

$$$$
>  <compound>
O=C(Nc1cccc(-n2cc(-c3ccncc3)c(-c3cc(O)cc(Cl)c3)n2)c1)c1ccc(N2CCOCC2)c(C(F)(F)F)c1

>  <tested_target>
UACC-257 melanoma

>  <TGI>
8.48 µM

$$$$
>  <compound>
C[n+]1cc2cc(O)c(O)cc2c2ccc3cc(O)c(O)cc3c21

>  <tested_target>
UACC-257 melanoma

>  <TGI>
> 100 µM

$$$$
